- Assayed system: IGFR-1 (Homo sapiens, UniProt P08069)
- Construct: Kinases are expressed as either kinase domains or full length constructs; made in house
- Sequence (P08069 31-1367): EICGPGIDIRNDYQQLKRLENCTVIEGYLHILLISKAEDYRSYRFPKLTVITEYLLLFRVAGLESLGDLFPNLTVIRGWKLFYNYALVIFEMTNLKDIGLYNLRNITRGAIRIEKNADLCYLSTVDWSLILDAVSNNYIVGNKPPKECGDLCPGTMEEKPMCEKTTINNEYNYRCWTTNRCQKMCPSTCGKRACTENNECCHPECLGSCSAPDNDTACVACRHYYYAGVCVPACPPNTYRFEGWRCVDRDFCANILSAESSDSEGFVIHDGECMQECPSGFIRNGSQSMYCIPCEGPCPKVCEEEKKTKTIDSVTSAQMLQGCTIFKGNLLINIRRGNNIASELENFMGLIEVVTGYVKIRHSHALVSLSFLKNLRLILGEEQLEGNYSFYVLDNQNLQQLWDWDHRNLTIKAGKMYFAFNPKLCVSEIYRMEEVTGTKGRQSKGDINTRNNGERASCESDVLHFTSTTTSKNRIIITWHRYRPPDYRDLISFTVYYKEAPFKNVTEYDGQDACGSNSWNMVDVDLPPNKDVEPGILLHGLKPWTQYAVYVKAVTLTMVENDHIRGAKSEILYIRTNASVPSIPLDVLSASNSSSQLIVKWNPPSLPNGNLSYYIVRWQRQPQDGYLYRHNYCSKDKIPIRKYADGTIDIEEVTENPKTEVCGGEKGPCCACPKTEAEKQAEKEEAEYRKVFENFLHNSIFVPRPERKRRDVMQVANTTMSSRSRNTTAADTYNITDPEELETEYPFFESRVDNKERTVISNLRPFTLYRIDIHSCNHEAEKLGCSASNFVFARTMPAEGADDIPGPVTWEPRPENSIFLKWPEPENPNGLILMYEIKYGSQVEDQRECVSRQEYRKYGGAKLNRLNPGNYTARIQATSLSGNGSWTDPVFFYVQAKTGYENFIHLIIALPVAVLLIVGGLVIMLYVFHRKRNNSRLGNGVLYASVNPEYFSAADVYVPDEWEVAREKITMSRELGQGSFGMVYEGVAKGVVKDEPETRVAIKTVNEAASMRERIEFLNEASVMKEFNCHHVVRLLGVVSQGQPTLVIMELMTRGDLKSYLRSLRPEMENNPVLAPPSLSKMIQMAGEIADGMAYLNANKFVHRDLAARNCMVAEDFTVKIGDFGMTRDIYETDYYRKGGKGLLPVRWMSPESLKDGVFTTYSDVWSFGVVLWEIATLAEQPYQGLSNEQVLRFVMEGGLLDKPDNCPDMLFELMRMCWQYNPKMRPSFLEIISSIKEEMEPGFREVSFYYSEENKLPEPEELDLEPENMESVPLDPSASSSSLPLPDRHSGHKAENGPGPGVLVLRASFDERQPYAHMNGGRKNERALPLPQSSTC
- Test description: Kinase inhibition assay (33P transfer), IGFR-1
- Assay type: biochemical
- Condition context: Table 2, class symbols A-E

[
  {
    "Compound": "NC(=O)Cc1cccc(Nc2ncnc(-n3c(NCc4ccccc4)nc4ccccc43)n2)c1",
    "IC50": "> 9.99 µM"
  },
  {
    "Compound": "COc1cc(Nc2ncnc(N(C)c3cccc(Cl)c3)n2)cc2ccccc12",
    "IC50": "> 11.5 µM"
  },
  {
    "Compound": "COc1cc(Nc2ncnc(-n3ccnc3Cl)n2)cc(OC)c1OC",
    "IC50": "1.1 to 6.62 µM"
  },
  {
    "Compound": "COc1cc(Nc2ncnc(-c3cccnc3Nc3ccc(C(F)(F)F)cc3)n2)cc(OC)c1OC",
    "IC50": "> 9.03 µM"
  },
  {
    "Compound": "COc1ccc(Nc2ncnc(NCc3ccc(C)c(Cl)c3)n2)cc1OC",
    "IC50": "> 11.7 µM"
  },
  {
    "Compound": "Cc1ccc2c(c1)CCCN2c1ncnc(Nc2ccc(F)c(F)c2)n1",
    "IC50": "> 12.7 µM"
  },
  {
    "Compound": "COc1cccc(CCNc2ncnc(Nc3ccc4c(cnn4Cc4ccccc4)c3)n2)c1OC",
    "IC50": "> 9.34 µM"
  },
  {
    "Compound": "Fc1ccc(CNc2ncccc2-c2ncnc(Nc3cccc(Cn4ccnc4)c3)n2)cc1",
    "IC50": "0.884 to 5.3 µM"
  },
  {
    "Compound": "c1ccc(-c2cc(Nc3ncnc(Nc4cccc(-c5cnco5)c4)n3)[nH]n2)cc1",
    "IC50": "< 1.01 µM"
  },
  {
    "Compound": "c1ccc(CNc2nc3ccccc3n2-c2ncnc(Nc3cccc(Cn4ccnn4)c3)n2)nc1",
    "IC50": "7.36 to 9.46 µM"
  },
  {
    "Compound": "COc1cc(Nc2ncnc(Nc3cccc(Cl)c3)n2)cc(OC)c1",
    "IC50": "< 1.12 µM"
  },
  {
    "Compound": "c1coc(-c2cc(Nc3ncnc(Nc4nc[nH]n4)n3)n[nH]2)c1",
    "IC50": "1.29 to 7.73 µM"
  },
  {
    "Compound": "CCOc1cccc(Nc2ncnc(N3CCCc4cc(C)ccc43)n2)c1",
    "IC50": "> 12.4 µM"
  },
  {
    "Compound": "c1ccc(CNc2nc3ccccc3n2-c2ncnc(Nc3cccc(Cn4ccnn4)c3)n2)cc1",
    "IC50": "> 9.48 µM"
  },
  {
    "Compound": "O=C(O)CCc1cccc(Nc2ncnc(Nc3cc(-c4ccco4)[nH]n3)n2)c1",
    "IC50": "< 1.02 µM"
  },
  {
    "Compound": "CN(c1ccc2c(cnn2Cc2ccccc2)c1)c1ncnc(Nc2cccc(Br)c2)n1",
    "IC50": "> 9.25 µM"
  },
  {
    "Compound": "COc1cc(Nc2ncnc(-c3cccnc3NC(C)c3cccc4ccccc34)n2)cc(OC)c1OC (centres unmarked)",
    "IC50": "> 8.85 µM"
  },
  {
    "Compound": "COc1cccc(Nc2ncnc(Nc3ccc4c(cnn4Cc4ccccc4)c3)n2)c1",
    "IC50": "5.67 to 8.26 µM"
  },
  {
    "Compound": "COC(=O)c1ccc(-c2cc(Nc3ncnc(Nc4ccc(N5CCOCC5)cc4)n3)[nH]n2)cc1",
    "IC50": "0.847 to 5.08 µM"
  },
  {
    "Compound": "COc1cc(Nc2ncnc(-c3cccnc3NC3CCCCC3)n2)cc(OC)c1OC",
    "IC50": "> 10.3 µM"
  },
  {
    "Compound": "c1cc(Cn2ccnn2)cc(Nc2ncnc(-n3c(Nc4ccc5[nH]ccc5c4)nc4ccccc43)n2)c1",
    "IC50": "4.8 to 7.01 µM"
  },
  {
    "Compound": "c1ccc(Cn2ncc3cc(Nc4ncnc(NCCN5CCCC5)n4)ccc32)cc1",
    "IC50": "> 10.9 µM"
  },
  {
    "Compound": "FC(F)(F)Oc1cccc(Nc2ncnc(Nc3ccc4c(cnn4Cc4ccccc4)c3)n2)c1",
    "IC50": "> 9.43 µM"
  }
]

Taken from patent US7074789B2.
